- applied conditions: buffer; pH 7.4; 200.0 µM
measure name: solubility kinetic (µg/mL)

[
  {
    "molecule": "CCn1c(SCC(=O)O)nnc1-c1ccccc1OC",
    "inequality sign": ">",
    "measured number": 44
  },
  {
    "molecule": "Cc1ccc(S(=O)(=O)N2CCCCC2)c2nsnc12",
    "inequality sign": "=",
    "measured number": 31.9
  },
  {
    "molecule": "Cn1cc([N+](=O)[O-])cc1-c1nc2ccccc2n1C",
    "inequality sign": ">",
    "measured number": 38.4
  },
  {
    "molecule": "CC(C)(C)C(=O)N1CCN(c2nc3ccccc3o2)CC1",
    "inequality sign": ">",
    "measured number": 43.1
  },
  {
    "molecule": "COc1ccccc1Cc1nc(-c2cccnc2)no1",
    "inequality sign": "=",
    "measured number": 31.9
  },
  {
    "molecule": "CCCCNC(=O)COCc1cc(-c2ccc3c(c2)OCO3)on1",
    "inequality sign": "=",
    "measured number": 19.5
  },
  {
    "molecule": "Cn1ccnc1C(=O)c1ccc(N)cc1",
    "inequality sign": ">",
    "measured number": 30.2
  },
  {
    "molecule": "CCc1ccc(Nc2nc(C)cc(C)c2C(N)=O)cc1",
    "inequality sign": ">",
    "measured number": 40.4
  },
  {
    "molecule": "Cc1c(Cc2ccc3c(c2)OCO3)sc(NC(=O)C2CC2)c1C(N)=O",
    "inequality sign": "=",
    "measured number": 1.8
  },
  {
    "molecule": "COC(=O)c1csc(S(=O)(=O)N2CCCCC2)c1OC",
    "inequality sign": ">",
    "measured number": 47.9
  },
  {
    "molecule": "O=C1C(CSCc2ccccc2)NC(=S)N1c1ccccc1 (stereo not given)",
    "inequality sign": "=",
    "measured number": 2.9
  },
  {
    "molecule": "COc1ccccc1NC(=O)c1cc(Cl)nnc1Cl",
    "inequality sign": ">",
    "measured number": 44.7
  },
  {
    "molecule": "CSc1ccccc1NC(=O)Cn1c([N+](=O)[O-])cnc1C",
    "inequality sign": "=",
    "measured number": 41.5
  },
  {
    "molecule": "CC(CCc1ccccc1)NC(=O)CN(C)Cc1ccccc1F (stereo not given)",
    "inequality sign": "=",
    "measured number": 48.4
  },
  {
    "molecule": "CNS(=O)(=O)c1ccc(NS(=O)(=O)c2ccccc2F)cc1",
    "inequality sign": "=",
    "measured number": 51
  },
  {
    "molecule": "CN1CCN(C(=O)CCc2nc(-c3ccc(Cl)cc3)no2)CC1",
    "inequality sign": ">",
    "measured number": 50.2
  },
  {
    "molecule": "O=C(CCC(=O)Nc1cccc(C(F)(F)F)c1)NCC1CCCO1 (stereo not given)",
    "inequality sign": ">",
    "measured number": 51.6
  },
  {
    "molecule": "Nn1c(-c2ccccc2)nc2ccccc2c1=O",
    "inequality sign": ">",
    "measured number": 35.6
  },
  {
    "molecule": "CN(CC(=O)Nc1ccccc1Cl)CC(=O)Nc1cccc2ccccc12",
    "inequality sign": "=",
    "measured number": 45.3
  },
  {
    "molecule": "CCOC(=O)C(=O)Nc1sc(C(=O)N(CC)CC)c(C)c1C#N",
    "inequality sign": ">",
    "measured number": 50.6
  },
  {
    "molecule": "CN(C)CCCNc1oc(-c2ccc(Cl)cc2)nc1S(=O)(=O)c1ccccc1",
    "inequality sign": ">",
    "measured number": 63
  },
  {
    "molecule": "Cc1ccc(Br)c(NS(=O)(=O)c2cccc(C(=O)N3CCNC(=O)C3)c2)c1",
    "inequality sign": ">",
    "measured number": 67.8
  },
  {
    "molecule": "CC(=O)c1sc2c(c1N)c(=O)[nH]c(=O)n2-c1ccccc1",
    "inequality sign": "=",
    "measured number": 8.5
  },
  {
    "molecule": "CCc1ccccc1Nc1ncnc2ccccc12.Cl",
    "inequality sign": ">",
    "measured number": 42.9
  },
  {
    "molecule": "CCCN(C(=O)CSc1ccccc1C(=O)O)C1CCS(=O)(=O)C1 (stereo not given)",
    "inequality sign": ">",
    "measured number": 55.7
  }
]
